Molecular target: T1, Human NKp30, construct BKM0179 (human, UniProt O14931 19-135, limits assumed)
T1 construct: Immobilized on a CM5 chip via anti-mouse Fc antibody, so it likely carries a mouse Fc; also called Human Nkp30 (BKM0179)
T1 sequence (looked up): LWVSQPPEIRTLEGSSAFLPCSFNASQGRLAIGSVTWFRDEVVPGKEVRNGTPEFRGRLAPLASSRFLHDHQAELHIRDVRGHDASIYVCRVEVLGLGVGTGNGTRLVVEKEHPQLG
Assay: SPR (BIAcore T200), human NKp30 BKM0179 captured via anti-mouse Fc on CM5, antibody injected 3.9-125 nM, 1:1 fit
A collection of binders and their measured Kd
Numeric answer plus unit only.

The examples below pair each entry with its known result.
Binder | Kd
BKM0142 (scFv, also called BJM0411 VH-N60A) scFv: EIQLLESGGGLVQPGGSLRLSCAVSGFSITTTGYHWNWVRQAPGKGLEWVGYIYSSGSTSYAPSLKSRFTISRDTSKNTFYLQMNSLRAEDTAVYYCARGDWHYFDYWGQGTMVTVSSGGGGSGGGGSGGGGSGGGGSDSVTTQSPLSLPVTLGQPASISCSGEKLSDKYVHWYQQRPGQSPRMLIYENDRRPSGVPDRFSGSNSGNDATLKISRVEAEDVGVYFCQFWDSTNSAVFGGGTKVEIK | 1.28 nM
BKM0140 (scFv, also called BJM0407 VL-D92A) scFv: EIQLLESGGGLVQPGGSLRLSCAVSGFSITTTGYHWNWVRQAPGKGLEWVGYIYSSGSTSYNPSLKSRFTISRDTSKNTFYLQMNSLRAEDTAVYYCARGDWHYFDYWGQGTMVTVSSGGGGSGGGGSGGGGSGGGGSSSETTQPPSVSVSPGQTASITCSGEKLSDKYVHWYQQKPGQSPVMVIYENDRRPSGIPERFSGSNSGNTATLTISGTQAMDEADYFCQFWASTNSAVFGGGTQLTVL | 3.3 nM

Per the records, this binder ( BKM0138 (scFv, also called BJM0411 VL-N95A) scFv: EIQLLESGGGLVQPGGSLRLSCAVSGFSITTTGYHWNWVRQAPGKGLEWVGYIYSSGSTSYNPSLKSRFTISRDTSKNTFYLQMNSLRAEDTAVYYCARGDWHYFDYWGQGTMVTVSSGGGGSGGGGSGGGGSGGGGSDSVTTQSPLSLPVTLGQPASISCSGEKLSDKYVHWYQQRPGQSPRMLIYENDRRPSGVPDRFSGSNSGNDATLKISRVEAEDVGVYFCQFWDSTASAVFGGGTKVEIK ) has Kd equal to 3.2 nM
